# credit: patent US20150368338A1

Please go through the items and note down their Kd.
# target-of-assay: T1, IFN-αC (human, UniProt P01566 24-189)
# T1 construct: Recombinant, HEK293; also called IFN-α10
# protocol: ProteOn SPR, cell supernatant;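 note: each binding measurement used just a single antigen concentration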
Give the value in nM but do not write nM after it.

[in] Consider the binder shown here: IFWM3405 (antibody, IgG1, V domains shown, mAb; IgG1/kappa said of the parent and of selected mAbs; also called IFWB3140) VH: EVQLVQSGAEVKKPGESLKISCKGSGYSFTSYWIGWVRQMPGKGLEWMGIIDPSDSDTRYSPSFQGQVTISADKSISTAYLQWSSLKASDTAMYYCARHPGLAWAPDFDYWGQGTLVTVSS VL: DIQMTQSPSSLSASVGDRVTITCRASQSIANNNLNWYQQKPGKAPKLLIHWASSLQSGVPSRFSGSGSGTDFTLTISSLQPEDFATYYCQQGYDTPFTFGQGTKVEIK What is its recorded Kd?
[out] 0.022

[in] Entry IFWM3395 (antibody, IgG1, V domains shown, mAb; IgG1/kappa said of the parent and of selected mAbs; also called IFWB3130) VH: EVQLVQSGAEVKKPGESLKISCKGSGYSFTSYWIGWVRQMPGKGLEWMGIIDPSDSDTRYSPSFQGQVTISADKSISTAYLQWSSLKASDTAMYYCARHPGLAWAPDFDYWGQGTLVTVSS VL: DIQMTQSPSSLSASVGDRVTITCRASQSISKFLNWYQQKPGKAPKLLIYFASSLQSGVPSRFSGSGSGTDFTLTISSLQPEDFATYYCQQSYDFPITFGQGTKVEIK : reported Kd = ?
[out] 0.116
